- Protocol Details: Pharmacokinetic analysis of Nec-1f in mice (tissue PK)
- Format: in vivo, C57BL/6 mice
- Measurement Setup: male, C57BL/6, mouse, plasma, intraperitoneal, 2 mg/ml, plasma; sample collection 60 min; individual mice; read-out: concentration in plasma
Endpoint Label: concentration at 60 min (ng/mL)
Unit ng/mL implied. Number only.

Ask: Need concentration at 60 min, item CN1C(=O)C(Cc2c[nH]c3c(Cl)cccc23)NC1=S (stereo not shown) [Nec-1f]
Reply: 19

---

- Protocol Details: Pharmacokinetic analysis of Nec-1f in mice (tissue PK)
- Format: in vivo, C57BL/6 mice
- Measurement Setup: male, C57BL/6, mouse, kidney, intraperitoneal, 2 mg/kg, kidney; sample collection 480 min; individual mice; read-out: concentration in kidney
Endpoint Label: concentration at 480 min

Ask: Need concentration at 480 min, item CN1C(=O)C(Cc2c[nH]c3c(Cl)cccc23)NC1=S (stereo not shown)
Reply: 0 ng/mL
